Where do the numbers come from? From paper PMC4552634.

For each record, write down the corresponding % Inhibition.
Test system: P. falciparum stage V gametocytes
Design: BacTiter-Glo ATP luminescence viability of purified stage V gametocytes in 384-well plates, per cent inhibition versus DMSO
Condition context: 48 h, 5 µM; inhibitor
Screen size: about 13,000 compounds; about 3,200 (25%) showed an effect of 50% or more. Some of the results follow.
Respond numerically; units are % and should not be typed.

Output % Inhibition of "N=c1c2c(n(Cc3ccccc3)c3c1CCC3)CCCC2"
-1.262

Output % Inhibition of "Oc1ccc(OCc2ccccn2)cc1"
0.9057

Output % Inhibition of "CCCCN(CCCC)Cc1cc2ccccc2cc1O"
-20.89

Output % Inhibition of COc1ccc(CNC(=O)NC2CCN(c3ccnc(Nc4ccc(F)cc4)n3)C2)cc1 (stereo not drawn)
-44.87

Output % Inhibition of "COC(=O)Cc1ccc(N)c2ccccc12"
-43.46

Output % Inhibition of "COc1ccc(CCNCCCCNCCc2ccc(OC)c3ccccc23)c2ccccc12"
106.4

Output % Inhibition of "Oc1ccccc1CN(CCCN(Cc1ccccn1)Cc1ccccc1O)Cc1ccccn1"
77.52

Output % Inhibition of "COc1ccc(CNCCCCCCNCc2ccc(OC)c3ccccc23)c2ccccc12"
111.4

Output % Inhibition of "COc1ccc(-n2ccnc2SCC(=O)Nc2cc(C)ccc2C)c(OC)c1"
-3.768

====

For each record, write down the corresponding % Inhibition.
Tested on: P. falciparum stage V gametocytes
Parameters: BacTiter-Glo ATP luminescence viability of purified stage V gametocytes in 384-well plates, per cent inhibition versus DMSO
Condition context: 48 h, 5 µM; inhibitor
Hit rate of the full screen: of about 13,000 compounds, about 3,200 (25%) showed an effect of 50% or more. This is one part of the list.
Respond numerically; units are % and should not be typed.

GET % Inhibition where system = P. falciparum stage V gametocytes and item = C=CCn1cc(C2CCN(CCCCNC(=O)c3sc(-c4ccc(C(F)(F)F)cc4)nc3CO)CC2)c2cc(OC)ccc21 [TCMDC-138828]
92.56

GET % Inhibition where system = P. falciparum stage V gametocytes and item = CCN1CCC(N(CCCCCCc2ccc(C(F)(F)F)cc2)C(=O)Cn2c(CCc3cccc(F)c3F)cc(=O)c3ccccc32)CC1 [TCMDC-141339]
43.24

GET % Inhibition where system = P. falciparum stage V gametocytes and item = CCc1ccc(C2CCN(CCCCNC(=O)c3ccc(-c4ccc(C(F)(F)F)cc4)cc3)CC2)c(OCCO)c1 [TCMDC-138761]
105.9

GET % Inhibition where system = P. falciparum stage V gametocytes and item = COCCN1CCC(N(Cc2ccc(-c3ccc(OC(F)(F)F)cc3)cc2)C(=O)Cn2c(CCc3cccc(F)c3F)cc(=O)c3ccccc32)CC1 [TCMDC-136001]
86.7

GET % Inhibition where system = P. falciparum stage V gametocytes and item = CCOC(=O)c1cc(C(=O)NCCCCN2CCC(c3ccc4c(c3OC)CCCC4)CC2)ccc1-c1ccc(C(F)(F)F)cc1 [TCMDC-138739]
73.05

GET % Inhibition where system = P. falciparum stage V gametocytes and item = O=C(N[C@@H](CC1CCCCC1)C(=O)NCCN1CCOCC1)c1ccc(O)c(-c2ccc(Cl)c(Cl)c2)c1 [TCMDC-140854]
37.92

GET % Inhibition where system = P. falciparum stage V gametocytes and item = CCc1ccc(C2CCN(CCCCNC(=O)c3ccc(-c4ccc(C#N)cc4)cc3)CC2)c(OCCO)c1 [TCMDC-138765]
-6.555
